Target: T1, recombinant human ROR1 extracellular domain (human, UniProt Q01973 30-406)
T1 construct: biotinylated for the filter lifts; also called huROR1-ECD; human ROR1-ECD
T1 sequence (Q01973 30-406 limits assumed): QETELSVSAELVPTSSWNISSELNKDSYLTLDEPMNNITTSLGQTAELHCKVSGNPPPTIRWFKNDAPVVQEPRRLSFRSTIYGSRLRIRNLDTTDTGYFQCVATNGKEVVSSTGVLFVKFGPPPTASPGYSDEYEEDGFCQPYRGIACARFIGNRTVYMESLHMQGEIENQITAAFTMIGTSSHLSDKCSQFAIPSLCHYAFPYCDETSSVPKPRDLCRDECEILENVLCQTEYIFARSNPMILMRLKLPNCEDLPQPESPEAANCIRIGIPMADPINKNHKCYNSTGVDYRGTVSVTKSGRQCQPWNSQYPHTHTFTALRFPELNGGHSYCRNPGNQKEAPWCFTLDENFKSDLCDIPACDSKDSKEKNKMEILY
Experiment: ELISA, soluble Fab on coated huROR1-ECD
Procedure: The previously described filter lift assay provides a visual, qualitative assessment of antigen binding (Example 1). In order to assess the ROR1 binding activity of Ab1 Fab in a more quantitative fashion, an ELISA assay was developed. A 96-well Costar-3366 plate was coated with 50 μL/well of 1 μg/mL human ROR1-ECD (ACROBiosystems, cat. #RO1-H522y) in PBS overnight at 4° C. […] The reaction was terminated by the addition of 2 N H2504 and the A450 was determined using a Spectramax plate reader.
I'd appreciate it if you could supply pKd values for the items below.
One number for each entry, as −log10 of the molar value.

| binder | pKd |
| --- | --- |
| Ab1 Fab variant H2 F58I (Fab, V domains shown, Fab) VH: QVQLQESGPGLVKPSQTLSLTCTVSGYAFTAYNIHWVRQAPGQGLEWMGSIDPYDGGSSYNQKFKDRLTISKDTSKNQVVLTMTNMDPVDTATYYCARGWYYFDYWGHGTLVTVSS VL: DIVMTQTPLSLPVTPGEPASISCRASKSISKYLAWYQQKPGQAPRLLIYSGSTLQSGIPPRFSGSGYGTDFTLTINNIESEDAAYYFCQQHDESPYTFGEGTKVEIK | 8.74 |
| Ab1 Fab variant L1 S30H (Fab, V domains shown, Fab) VH: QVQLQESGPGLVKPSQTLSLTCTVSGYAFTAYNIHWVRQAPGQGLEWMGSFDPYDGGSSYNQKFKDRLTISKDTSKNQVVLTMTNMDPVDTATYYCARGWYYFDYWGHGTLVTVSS VL: DIVMTQTPLSLPVTPGEPASISCRASKHISKYLAWYQQKPGQAPRLLIYSGSTLQSGIPPRFSGSGYGTDFTLTINNIESEDAAYYFCQQHDESPYTFGEGTKVEIK | 8.85 |

The value of pKd measured for the binder Ab1 Fab variant H2 G66E (Fab, V domains shown, Fab) VH: QVQLQESGPGLVKPSQTLSLTCTVSGYAFTAYNIHWVRQAPGQGLEWMGSFDPYDEGSSYNQKFKDRLTISKDTSKNQVVLTMTNMDPVDTATYYCARGWYYFDYWGHGTLVTVSS VL: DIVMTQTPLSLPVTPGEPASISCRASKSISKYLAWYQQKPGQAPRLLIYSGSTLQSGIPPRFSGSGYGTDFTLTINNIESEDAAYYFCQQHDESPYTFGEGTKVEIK turned out to be 9.05

These measurements were taken from patent US20230021388A1.
